Tgt: purified biotin-tagged human CD36 (human, UniProt P16671 30-439, limits assumed, biotin tag, site not stated)
Sequence (P16671 30-439 limits assumed): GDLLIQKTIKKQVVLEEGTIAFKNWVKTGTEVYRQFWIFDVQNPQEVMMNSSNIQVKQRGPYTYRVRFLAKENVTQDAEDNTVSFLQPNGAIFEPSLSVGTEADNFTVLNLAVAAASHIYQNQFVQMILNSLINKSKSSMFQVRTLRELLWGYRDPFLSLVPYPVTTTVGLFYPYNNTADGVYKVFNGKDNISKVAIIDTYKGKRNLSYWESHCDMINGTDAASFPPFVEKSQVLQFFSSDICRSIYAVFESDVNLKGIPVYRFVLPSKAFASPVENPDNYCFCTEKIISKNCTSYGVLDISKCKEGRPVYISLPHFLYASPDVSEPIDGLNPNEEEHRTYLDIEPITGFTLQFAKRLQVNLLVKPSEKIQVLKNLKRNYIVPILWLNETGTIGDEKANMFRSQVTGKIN
Assay Overview: AlphaScreen competition; competitor 1G04 on acceptor beads;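 also: streptavidin donor beads excited at 680 nm release singlet oxygen, and the light signal needs a nearby acceptor bead, with 30 min donor-bead incubation at 25 °C in the dark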
Catalogue of binders with associated EC50

Binder	EC50 (nM)
13G04 (antibody, human IgG1, V domains shown, Chimeric: mouse variable regions on human IgG1 LALA (L234A/L235A); also called 013G04) VH: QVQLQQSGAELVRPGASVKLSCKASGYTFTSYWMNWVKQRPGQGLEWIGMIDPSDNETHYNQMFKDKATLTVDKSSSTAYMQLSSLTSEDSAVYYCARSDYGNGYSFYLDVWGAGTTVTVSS VL: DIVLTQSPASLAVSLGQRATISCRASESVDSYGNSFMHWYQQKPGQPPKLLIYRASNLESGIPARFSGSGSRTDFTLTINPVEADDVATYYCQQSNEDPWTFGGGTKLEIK	0.17
34G04 (antibody, human IgG1, V domains shown, Chimeric: chicken variable regions on human IgG1 LALA (L234A/L235A); also called 034G04) VH: AVTLDESGGGLQTPGGALSLVCKASGFDFSSYAMGWVRQAPGKGLEWVAGKAKDGGGTAYGSAVKGRATISRDNGQSTVRLQLSNLRAEDTGVYYCAKSAYGDWFYGSSGPYADSIDAWGHGTEVIVSS VL: ALTQPSSVSANPGETVKITCSGGDNYAGSYYYGWYQQKSPGSAPVTVIYDDTNRPADIPSRFSGSTSGSTNTLTITGVRAEDEAVYFCGGWDSINDRNIFGAGTTLTVL	2.47
